Reference source for all entries: ChEMBL document CHEMBL1138058

experiment: Bioavailability in Balb/C mouse at 90 mg/kg, po; format: ADME, organism-based; settings: in vivo
measured endpoint: bioavailability (%)
Return type: number; implicit unit %.

For `O=C(NC1CC1)c1cc(NCc2cnc(Nc3ccccn3)s2)c(F)cc1F` , what is its reported bioavailability?
100

----------
assay: Volume of distribution in Balb/C mouse at 10 mg/kg, iv; format: ADME, organism-based; design: dose 10 mg/kg, route intravenous; details: in vivo, read-out: Vss
measured endpoint: Vd (L/kg)
Return type: number; implicit unit L/kg.

For `O=C(NC1CC1)c1cc(NCc2cnc(Nc3ccccn3)s2)c(F)cc1F` , what is its reported Vd?
1.7

----------
test system: Cynomolgus monkey; experiment: AUC in cynomolgus monkey at 5 mg/kg, po; format: ADME, organism-based, Macaca fascicularis, Plasma; parameters: dose 5 mg/kg, route oral; conditions: in vivo
measured endpoint: AUC (µM·h)
Return type: number; implicit unit µM·h.

For `O=C(NC1CC1)c1cc(NCc2cnc(Nc3ccccn3)s2)c(F)cc1F` , what is its reported AUC?
28.5
